Please respond with reported TGI for every item in the list.
- Tested on: IGROV1 ovarian
- assayMethodText: NCI tumour cell line growth inhibition, 48 h

QUERY: Quick one: TGI of O=C(O)CCCn1c(SCc2c(Cl)cccc2Cl)nc2ccsc2c1=O ?
RESULT: > 100 µM

QUERY: Quick one: TGI of N#CC(=N)c1ncn(CCO)c1NC(=O)C(F)(F)F ?
RESULT: > 100 µM

QUERY: Quick one: TGI of COc1ccc(NC(=O)C2C(=O)N(c3ccc(OC)cc3)C(=O)/C2=N\N)cc1 (centres undefined) ?
RESULT: > 100 µM

QUERY: Quick one: TGI of FC(F)(F)c1cccc(Nc2nc3ccccc3nc2Nc2cccc(C(F)(F)F)c2)c1 ?
RESULT: 16.8 µM

QUERY: Quick one: TGI of CC(C)C(=O)N1C(=O)O[C@@H](c2ccccc2)[C@H]1C ?
RESULT: > 100 µM

QUERY: Quick one: TGI of NC(N)=C1CN(C2CCCCC2)C(=O)NC1=O ?
RESULT: > 100 µM

QUERY: Quick one: TGI of COc1ccc(/C=C/C(=O)c2cccc(B(O)O)c2)cc1O ?
RESULT: 33 µM

QUERY: Quick one: TGI of COC1CC(OC2C(C)OC(OC3C(C)OC(OC4C(C)OC(O[C@H]5CC[C@@]6(C)C(=CC[C@]7(O)[C@@H]6C[C@@H](OC(=O)/C=C/c6ccccc6)[C@@]6(C)[C@]7(O)CC[C@@]6(O)C(C)=O)C5)CC4OC)CC3OC)CC2OC)OC(C)C1O (some centres undefined) ?
RESULT: > 12.5 µM

QUERY: Quick one: TGI of CN(C)CCCN1c2ccccc2CCc2cccc([N+](=O)[O-])c21 ?
RESULT: 32.3 µM

* * *

- System: MCF7 breast
- assayMethodText: NCI tumour cell line growth inhibition, 48 h
Please respond with reported TGI for every item in the list.

QUERY: Quick one: TGI of COc1ccc(CCn2nccc2C)cc1 ?
RESULT: > 100 µM

QUERY: Quick one: TGI of c1ccc2cc(CN3CCC(C4CCN(Cc5ccc6ccccc6c5)CC4)CC3)ccc2c1 ?
RESULT: 8.66 µM

QUERY: Quick one: TGI of COc1cc(-c2cc(=O)c3c(OC)c(OC)c(OC)c(OC)c3o2)cc(OC)c1OC ?
RESULT: > 100 µM

* * *

- System: SF-539 CNS
- assayMethodText: NCI tumour cell line growth inhibition, 48 h
Param threshold (30 µM) applies to TGI; output yes when value >= threshold, no when value < threshold.

QUERY: Is TGI for COC(=O)c1cc2c3c(c1)Oc1cc(C(=O)OC)cc4c1C3c1c(cc(C(=O)OC)cc1O4)O2 at or above 30 µM?
RESULT: yes

QUERY: Is TGI for COc1ccc2cc3[n+](cc2c1O)CCc1cc2c(cc1-3)OCO2 at or above 30 µM?
RESULT: yes

QUERY: Is TGI for COC(=O)C1CC2C=CC1N(C(=O)OCc1ccccc1)C2 (centres undefined) at or above 30 µM?
RESULT: yes

QUERY: Is TGI for COC(=O)C1=C(O)[C@H](C(=O)OC)C2(O)[C@@H](C(=O)OC)[C@H]1C[C@@H](c1ccc(OC(=O)n3ccnc3)cc1)[C@@H]2C(=O)OC at or above 30 µM?
RESULT: no

QUERY: Is TGI for O=C(O)C(Cc1c[nH]c2ccccc12)C(=O)NO (centres undefined) at or above 30 µM?
RESULT: yes

QUERY: Is TGI for COc1cccc(C2C(C(=O)O)=C(CO)Oc3cc4c(cc32)OCO4)c1OC (centres undefined) at or above 30 µM?
RESULT: yes

QUERY: Is TGI for Nc1nc2c(ncn2CC2CCC(CO)C2)c(=O)[nH]1 (centres undefined) at or above 30 µM?
RESULT: yes

QUERY: Is TGI for Cc1ccc(O)c(N=Nc2ccc(S(=O)(=O)O)cc2)n1 at or above 30 µM?
RESULT: yes

QUERY: Is TGI for CN1CCN(CC(=O)Nc2cccc3ccccc23)CC1 at or above 30 µM?
RESULT: yes

QUERY: Is TGI for NC(N)=C1CN(C2CCCCC2)C(=O)NC1=O at or above 30 µM?
RESULT: yes

QUERY: Is TGI for Cc1c(C(N)=O)sc2c1c(=O)n(Cc1ccccc1)c1nnc(SCC(=O)Nc3ccc(Cl)cc3)n21 at or above 30 µM?
RESULT: no

QUERY: Is TGI for Cc1ccc(-c2cc(C(=O)N3N=C(c4ccc(N)cc4)CC3c3ccc(Cl)cc3)c3ccccc3n2)cc1 (centres undefined) at or above 30 µM?
RESULT: no

QUERY: Is TGI for CC(=O)[CH-]C(C)=O.CC(=O)[CH-]C(C)=O.[CH2-]CCCCCCC.[CH2-]CCCCCCC.[Sn+4] at or above 30 µM?
RESULT: yes

QUERY: Is TGI for CC(C)(N=NC(C)(C)C(=N)N)C(=N)N at or above 30 µM?
RESULT: yes

QUERY: Is TGI for O=C(C[Si](CC(=O)c1cccc(C(F)(F)F)c1)CC(=O)c1cccc(C(F)(F)F)c1)c1cccc(C(F)(F)F)c1 at or above 30 µM?
RESULT: no

QUERY: Is TGI for CCC1=C(c2ccc(OC)cc2)CC[C@@]2(CCNC2=O)[C@@H]1C at or above 30 µM?
RESULT: yes

QUERY: Is TGI for CO[C@H](C(=O)[C@@H](O)[C@@H](C)O)[C@@H]1Cc2cc3cc(O[C@H]4C[C@@H](O[C@H]5C[C@@H](O)[C@H](O)C(C)O5)[C@H](O)C(C)(O)O4)cc(O)c3c(O)c2C(=O)[C@H]1O[C@H]1C[C@@H](O[C@H]2C[C@@H](O[C@H]3C[C@@H](OC)[C@H](O)C(C)O3)[C@@H](O)C(C)O2)[C@H](O)C(C)O1 (some centres undefined) at or above 30 µM?
RESULT: no

QUERY: Is TGI for O=C(N=C1N(c2ccccc2)C(=O)C(=O)N1c1ccccc1)c1ccccc1 at or above 30 µM?
RESULT: no

QUERY: Is TGI for O=C1C=CC(=O)c2ccc(=O)ccc21 at or above 30 µM?
RESULT: yes

QUERY: Is TGI for COc1ccc(P2(=S)Oc3ccc(C(c4ccccc4)(c4ccccc4)c4ccccc4)cc3O2)cc1 (centres undefined) at or above 30 µM?
RESULT: yes

QUERY: Is TGI for CC(C)C(=O)N1C(=O)O[C@@H](c2ccccc2)[C@H]1C at or above 30 µM?
RESULT: yes

QUERY: Is TGI for COc1ccc2nc3cc(Cl)ccc3c(NCCCCCN3CCCCC3)c2c1 at or above 30 µM?
RESULT: no

QUERY: Is TGI for NC1CSc2ccccc2NC1=O (centres undefined) at or above 30 µM?
RESULT: yes

QUERY: Is TGI for CCCCc1ccc(Nc2nc(=S)c3ncn(COCCO)c3[nH]2)cc1 at or above 30 µM?
RESULT: yes

QUERY: Is TGI for Cn1cc(C2=C(c3cn(CCSC(=N)N)c4ccccc34)C(=O)NC2=O)c2ccccc21 at or above 30 µM?
RESULT: no

QUERY: Is TGI for C[C@@H](O)[C@H]1C(=O)N2C(C(=O)O)=C(SCCN=CN)C[C@H]12 at or above 30 µM?
RESULT: no

QUERY: Is TGI for C=CCC12CC(=O)CCC1CC(=O)C2 (centres undefined) at or above 30 µM?
RESULT: yes

QUERY: Is TGI for CC(=O)c1c(P(=O)(OC(C)C)OC(C)C)nn(-c2ccc([N+](=O)[O-])cc2)c1C at or above 30 µM?
RESULT: yes

QUERY: Is TGI for O=c1[nH]nc(Cc2ccccc2)n1/N=C\CC/C=N\n1c(Cc2ccccc2)n[nH]c1=O at or above 30 µM?
RESULT: yes

QUERY: Is TGI for CC(C)[Si]1(C(C)C)OCC2OC(N3C(=O)NC(=O)C[C@@H]3C(O)c3ccccc3)CC2O[Si](C(C)C)(C(C)C)O1 (some centres undefined) at or above 30 µM?
RESULT: yes

QUERY: Is TGI for CC(=O)c1cc2c(c(O)c1C)C(=O)C(=O)c1c(O)cccc1-2 at or above 30 µM?
RESULT: no

QUERY: Is TGI for O[N+]1=CC=CCC1=S.On1ccccc1=S.[Zn] at or above 30 µM?
RESULT: no

QUERY: Is TGI for C[C@]12CCC3c4ccc(O)cc4CCC3C1CC[C@@]2(O)C#Cc1ccc(C#C/C=C\C#Cc2ccccc2N)cc1 (some centres undefined) at or above 30 µM?
RESULT: yes

QUERY: Is TGI for Cn1cc(C2=C(c3cn(CCCO)c4ccccc34)C(=O)NC2=O)c2ccccc21 at or above 30 µM?
RESULT: no

QUERY: Is TGI for c1ccc2c(c1)SC1=Nc3sc4ccccc4[n+]3CN12 at or above 30 µM?
RESULT: yes

QUERY: Is TGI for CC1CN1C1=CC(=O)c2c(c(CO)cn2C)C1=O (centres undefined) at or above 30 µM?
RESULT: no

QUERY: Is TGI for Cc1ccc2c(c1)C(=O)c1[nH]c3ccc(F)cc3c1CO2 at or above 30 µM?
RESULT: yes

QUERY: Is TGI for Cc1cc(C)c(OC(=O)Nc2cccc3ccccc23)c(-c2ccccc2)c1 at or above 30 µM?
RESULT: yes
